Quick list: logP per entry.
outcome.measure: logP

molecule	result.value
C1CNCCN1	-1.17
CC(O)CNCC(C)O (stereo not given)	-0.82
CC(O)CN (stereo not given)	-0.96
NCCO	-1.31
OCCNCCO	-1.43

###

experiment: method code SF-TN, from DOI: 10.3891/acta.chem.scand.05-0774
Quick list: logP per entry.
outcome.measure: logP

molecule	result.value
CCC(Br)C(=O)O (stereo unspecified)	1.42
CC(Br)C(=O)O (stereo unspecified)	0.92
O=C(O)CCCCCCCC(=O)O	1.59
CC(C)(O)C(=O)O	-0.36
O=C(O)CC(O)C(=O)O (stereo unspecified)	-1.26
O=C(O)CBr	0.41
